- Test system: HL-60(TB) leukemia
- ASSAY INFO: NCI-60 one-dose screen, 48 h
- CONDITION DETAILS: 10 µM unless noted
This is part of a sample that, as a whole, favours compounds with a hit. Of some 83,000 tested, about 20% had one in any assay. The source made the active and inactive calls. The calls were made as follows: active = growth percent below 10; inactive = the rest.
Outcomes you can answer with include only these: T (active), F (inactive)

Past entries and their recorded results:
[[record]]
compound = "Cc1ccc(C)c2c(C)c(C(=O)Nc3cccc(-n4cccn4)c3)oc12"
category = "F"

[[record]]
compound = "C=Cc1nn2c(CCC(=O)c3nc4ccccc4[nH]3)nnc2s1"
category = "F"

[[record]]
compound = "COc1cc(F)c(/C=C/c2cc(/C=C/c3cc(OC)c(OC)cc3F)on2)cc1OC"
category = "F"

[[record]]
compound = "CC1CCC2(C(=O)O)CCC3(C)C(=CCC4C5(C)CC(O)C(O)C(C)(CO)C5C(O)CC43C)C2C1C (centres undefined)"
category = "F"

[[record]]
compound = "CCCOCc1cn[nH]n1"
category = "F"

[[record]]
compound = "COc1ccc(C(=O)C2CC2c2ccc(Cl)cc2)cc1 (centres undefined)"
category = "F"

[[record]]
compound = "C=CCN=C(N)SCCCCCCSC(N)=NCC=C"
category = "F"

[[record]]
compound = "Brc1ccc2c(c1)-c1ccccc1C1=NCCN12"
category = "F"

[[record]]
compound = "COc1ccc(CNc2nccnn2)cc1"
category = "F"

[[record]]
compound = "O=C(Nc1cccc(Oc2nnc(Cl)c3ccccc23)c1)Nc1ccc(Cl)c(C(F)(F)F)c1"
category = "T"


Exercise: # fetch the recorded call for COc1ccc2c(c1)CCCC21C(=O)Nc2c(Cl)cccc21 (centres undefined) here
Solution: F

Exercise: Moving on to COc1ccc(/C=C2\N=C(c3cccnc3)N(c3ccccc3)NC2=O)cc1
Solution: F

Exercise: Request: C[N+](C)(C)c1ncnc2[n-]cnc12
Solution: F

Exercise: Please answer likewise for CCOc1nc(-c2ccccc2)cc2c(O)c(-c3nnco3)[nH]c(=O)c12
Solution: F

Exercise: Next compound: CCOc1cc(C2C(Cl)C(=O)N2n2cnnc2)ccc1O (centres undefined)
Solution: F
